# TGT: EGFR (L858R T790M C797S) (Homo sapiens, UniProt P00533, C797S/L858R/T790M)
# Sequence (P00533 25-1210 T790M/C797S/L858R): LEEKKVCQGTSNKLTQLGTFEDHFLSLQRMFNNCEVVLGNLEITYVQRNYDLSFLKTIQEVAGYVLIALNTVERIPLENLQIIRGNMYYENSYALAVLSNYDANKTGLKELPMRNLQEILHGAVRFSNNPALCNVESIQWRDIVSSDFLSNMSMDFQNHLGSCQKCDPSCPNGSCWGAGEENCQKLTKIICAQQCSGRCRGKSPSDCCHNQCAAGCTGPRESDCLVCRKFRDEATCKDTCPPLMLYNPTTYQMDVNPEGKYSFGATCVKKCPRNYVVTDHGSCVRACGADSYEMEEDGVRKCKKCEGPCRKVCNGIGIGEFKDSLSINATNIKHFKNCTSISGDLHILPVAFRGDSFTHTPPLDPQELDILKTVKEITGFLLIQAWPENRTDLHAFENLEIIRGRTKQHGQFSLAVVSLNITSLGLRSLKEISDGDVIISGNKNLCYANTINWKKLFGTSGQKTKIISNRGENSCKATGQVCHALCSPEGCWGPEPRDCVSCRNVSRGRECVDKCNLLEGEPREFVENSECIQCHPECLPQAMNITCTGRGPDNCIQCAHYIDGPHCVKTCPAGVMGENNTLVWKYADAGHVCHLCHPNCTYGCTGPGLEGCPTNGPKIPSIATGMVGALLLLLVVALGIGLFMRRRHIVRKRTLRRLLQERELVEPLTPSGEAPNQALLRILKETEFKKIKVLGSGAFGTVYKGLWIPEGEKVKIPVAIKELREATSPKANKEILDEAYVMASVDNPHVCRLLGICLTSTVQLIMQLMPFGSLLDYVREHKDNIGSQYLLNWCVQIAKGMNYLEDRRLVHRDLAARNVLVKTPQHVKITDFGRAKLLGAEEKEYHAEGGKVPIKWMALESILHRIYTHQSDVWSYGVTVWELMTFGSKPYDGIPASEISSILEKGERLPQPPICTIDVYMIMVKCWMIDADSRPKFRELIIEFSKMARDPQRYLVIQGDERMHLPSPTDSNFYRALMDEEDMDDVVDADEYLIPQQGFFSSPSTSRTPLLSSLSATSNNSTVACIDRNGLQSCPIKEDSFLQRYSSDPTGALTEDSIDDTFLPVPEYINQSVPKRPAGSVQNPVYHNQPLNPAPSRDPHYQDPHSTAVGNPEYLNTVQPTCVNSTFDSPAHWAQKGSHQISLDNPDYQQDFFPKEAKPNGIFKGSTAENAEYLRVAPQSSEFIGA
# PROTOCOL DESCRIPTION: Biochemical EGFR inhibition assay (Caliper mobility shift), EGFR LRTMCS mutant
# RUN CONDITIONS: inhibitory activity against EGFR LRTMCS mutant; apparent IC50; read-out: Ext Enz LRTMCS
# Procedure: Reactions proceeded until between 10% to 20% total peptides were phosphorylated at room temperature (25° C.) and were terminated with 35 mM 2,2′,2″,2′″-(ethane-1,2-diyldinitrilo)tetraacetic acid (EDTA). Product was detected using the Caliper mobility shift detection method where the phosphorylated peptide (product) and substrate were electrophoretically separated and measured. Percent activity was plotted against log concentration of compound and points to generate an apparent IC50.
MEASURED ATTRIBUTE: IC50

Observe how each entry below is paired with its result.
{"columns": ["COMPOUND", "IC50"],
 "data": [
  ["CN(C)CCS(=O)(=O)CC1CN(c2cccc3cc(Nc4ccnc(N5C[C@@H](F)[C@@H](O)C(C)(C)C5)n4)ncc23)C1 (single isomer, unassigned) [Compound 192]", "≤ 15 nM"],
  ["[2H]C([2H])([2H])O[C@@H]1CCN(c2nccc(Nc3cc4c(C(C)C)cnc(N5CC(CS(C)(=O)=O)C5)c4cn3)n2)C[C@@H]1F [Compound 264]", "≤ 15 nM"],
  ["COC1(CN)CCN(c2nccc(Nc3cc4c(C(C)C)ccc(N5C[C@H](CS(C)(=O)=O)[C@H]5C)c4cn3)n2)CC1 [Compound 169]", "15.1 to 20 nM"]
]}

Query block: Data request, read-out IC50, for CC(C)c1ccc(N2CC(CS(C)(=O)=O)C2)c2cnc(Nc3ccnc(N4CC[C@@](F)([C@@H](C)O)C4)n3)cc12 (single isomer, unassigned) [Compound 59]
Result block: ≤ 15 nM

Query block: Which IC50 is listed for CC(C)c1cnc(N2CC(CS(=O)(=O)C(F)(F)F)C2)c2cnc(Nc3ccnc(N4CC[C@@H](O)[C@@](C)(F)C4)n3)cc12 (single isomer, unassigned) [Compound 237] ?
Result block: 30.1 to 100 nM

Query block: # lookup: IC50 of CC(C)c1ncc(N2C[C@H](CS(C)(=O)=O)[C@H]2C)c2cnc(Nc3ccnc(N4CC[C@H](OCC(C)(C)O)[C@H](F)C4)n3)cc12 [Compound 257]
Result block: 15.1 to 20 nM

###

# TGT: EGFR (L858R T790M C797S) (Homo sapiens, UniProt P00533, C797S/L858R/T790M)
# PROTOCOL DESCRIPTION: Biochemical EGFR inhibition assay (Caliper mobility shift), EGFR LRTMCS mutant
# RUN CONDITIONS: inhibitory activity against EGFR LRTMCS mutant; apparent IC50; read-out: Ext Enz LRTMCS
MEASURED ATTRIBUTE: IC50

Worked set:
{"columns": ["MOLECULE", "VAL"],
 "data": [
  ["C[C@H](CO)c1ccc(N2C[C@@H](CS(C)(=O)=O)[C@@H]2C)c2cnc(Nc3ccnc(N4CC[C@@H](O)[C@@](C)(F)C4)n3)cc12 (single isomer, unassigned)", "≤ 15 nM"],
  ["CO[C@]1(C)CN(c2nccc(Nc3cc4c(C(C)C)ccc(N5CC(CS(C)(=O)=O)C5)c4cn3)n2)CC[C@@H]1O (single isomer, unassigned) [Compound 94]", "≤ 15 nM"],
  ["CCOc1cnc(N2CC(CS(C)(=O)=O)C2)c2cnc(Nc3ccnc(N4CC[C@@H](O)[C@@](C)(F)C4)n3)cc12 (single isomer, unassigned)", "≤ 15 nM"],
  ["[2H]C([2H])([2H])O[C@@H]1CCN(c2nccc(Nc3cc4c(C(C)C)ncc(N5C[C@H](CS(C)(=O)=O)[C@H]5C)c4cn3)n2)C[C@@H]1F (single isomer, unassigned) [Compound 162]", "≤ 15 nM"],
  ["CO[C@@H]1CCN(c2nccc(Nc3cc4c(C(C)C)ccc(N5C[C@H](CS(C)(=O)=O)[C@H]5C)c4cn3)n2)C[C@@H]1O (single isomer, unassigned)", "≤ 15 nM"],
  ["CC(C)c1ccc(N2CC(CS(C)(=O)=O)C2)c2cnc(Nc3ccnc(N4CC[C@@H](F)[C@H](O)C4)n3)cc12 (single isomer, unassigned)", "≤ 15 nM"],
  ["CC(C)c1cnc(N2C[C@H](CS(C)(=O)=O)[C@H]2C)c2cnc(Nc3ccnc(N4CC[C@@](C)(O)[C@@H](F)C4)n3)cc12 (single isomer, unassigned)", "≤ 15 nM"],
  ["CO[C@@H]1CCN(c2nccc(Nc3cc4c(C(C)C)nnc(N5C[C@H](CS(C)(=O)=O)[C@H]5C)c4cn3)n2)C[C@@H]1F", "≤ 15 nM"]
]}

Query block: For the record CN[C@H]1CCN(c2nccc(Nc3cc4c(C(C)C)ccc(N5C[C@H](CS(C)(=O)=O)[C@H]5C)c4cn3)n2)C[C@H]1F (single isomer, unassigned) [Compound 306] , what value of IC50 is listed for EGFR (L858R T790M C797S) (Homo sapiens, UniProt P00533, C797S/L858R/T790M)?
Result block: 20.1 to 30 nM

Query block: Entry "CCS(=O)(=O)C[C@H]1CN(c2ncc(C(C)C)c3cc(Nc4ccnc(N5CC[C@H](OCCO)[C@H](F)C5)n4)ncc23)[C@@H]1C" , system EGFR (L858R T790M C797S) (Homo sapiens, UniProt P00533, C797S/L858R/T790M): what IC50 was measured?
Result block: ≤ 15 nM

###

# TGT: EGFR (L858R T790M C797S) (Homo sapiens, UniProt P00533, C797S/L858R/T790M)
# Construct: purchased SignalChem E10-122VG
# PROTOCOL DESCRIPTION: Biochemical EGFR inhibition assay (Caliper mobility shift), EGFR LRTMCS mutant
# RUN CONDITIONS: inhibitory activity against EGFR LRTMCS mutant; apparent IC50; read-out: Ext Enz LRTMCS
Recorded IC50 for the following compounds

{"columns": ["COMPOUND", "TGT", "IC50"],
 "data": [
  ["CCS(=O)(=O)CC1CN(c2ccc(C(C)C)c3cc(Nc4cnnc(N5CC[C@@H](OC)[C@@H](F)C5)n4)ncc23)C1", "EGFR (L858R T790M C797S) (Homo sapiens, UniProt P00533, C797S/L858R/T790M)", "≤ 15 nM"],
  ["CC(C)c1ccc(N2C[C@H](CS(C)(=O)=O)[C@H]2C)c2cnc(Nc3ccnc(N4CCC(C)(O)CC4)n3)cc12 (single isomer, unassigned)", "EGFR (L858R T790M C797S) (Homo sapiens, UniProt P00533, C797S/L858R/T790M)", "≤ 15 nM"],
  ["C[C@@H]1[C@@H](CS(C)(=O)=O)CN1c1cccc2cc(Nc3ccnc(N4C[C@@H](F)[C@@H](O)[C@](C)(F)C4)n3)ncc12 (single isomer, unassigned)", "EGFR (L858R T790M C797S) (Homo sapiens, UniProt P00533, C797S/L858R/T790M)", "≤ 15 nM"]
]}

Query block: Param item = "CC(C)c1ccc(N2C[C@H](CS(C)(=O)=O)[C@H]2C)c2cnc(Nc3ccnc(N4CC[C@@H](OCCN(C)C)[C@@H](F)C4)n3)cc12" ; retrieve measured IC50.
Result block: ≤ 15 nM

Query block: Entry CO[C@H]1CN(c2nccc(Nc3cc4c(C(C)C)ccc(N5C[C@H](CS(C)(=O)=O)[C@H]5C)c4cn3)n2)CC[C@H]1O (single isomer, unassigned) : reported IC50 = ?
Result block: ≤ 15 nM

Query block: What value of measured IC50 is listed for "CC(C)c1ccc(N2CC(CS(C)(=O)=O)C2)c2cnc(Nc3ccnc(N4CC5CCC(C4)O5)n3)cc12" ?
Result block: ≤ 15 nM

###

# IC50 per entry
# TGT: EGFR (L858R T790M C797S) (Homo sapiens, UniProt P00533, C797S/L858R/T790M)
# PROTOCOL DESCRIPTION: Biochemical EGFR inhibition assay (Caliper mobility shift), EGFR LRTMCS mutant
# RUN CONDITIONS: inhibitory activity against EGFR LRTMCS mutant; apparent IC50; read-out: Ext Enz LRTMCS

# example entries with known answers
{"columns": ["MOLECULE", "TGT", "MEASURED ATTRIBUTE", "VAL"],
 "data": [
  ["CCS(=O)(=O)C[C@H]1CN(c2ccc(C(C)C)c3cc(Nc4ccnc(N5CC[C@@](C)(O)[C@@H](F)C5)n4)ncc23)[C@@H]1C (single isomer, unassigned)", "EGFR (L858R T790M C797S) (Homo sapiens, UniProt P00533, C797S/L858R/T790M)", "IC50", "≤ 0.015 µM"],
  ["CC(C)c1ncc(N2C[C@H](CS(C)(=O)=O)[C@H]2C)c2cnc(Nc3ccnc(N4CC[C@H](OC5CC5)[C@H](F)C4)n3)cc12", "EGFR (L858R T790M C797S) (Homo sapiens, UniProt P00533, C797S/L858R/T790M)", "IC50", "0.0151 to 0.02 µM"],
  ["CO[C@@H]1CCN(c2nccc(Nc3cc4c(F)ccc(N5C[C@H](CS(C)(=O)=O)[C@H]5C)c4cn3)n2)C[C@]1(C)F (single isomer, unassigned)", "EGFR (L858R T790M C797S) (Homo sapiens, UniProt P00533, C797S/L858R/T790M)", "IC50", "≤ 0.015 µM"],
  ["CC[C@]1(F)CN(c2nccc(Nc3cc4c(C(C)C)ccc(N5CC(CS(C)(=O)=O)C5)c4cn3)n2)CC[C@H]1O (single isomer, unassigned)", "EGFR (L858R T790M C797S) (Homo sapiens, UniProt P00533, C797S/L858R/T790M)", "IC50", "≤ 0.015 µM"]
]}

Attention now shifts to the item below.
Query block: Bench note: what IC50 did CC(C)c1cnc(N2CC(CS(C)(=O)=O)C2)c2cnc(Nc3ccnc(N4C[C@H](F)[C@@H](F)C4)n3)cc12 (single isomer, unassigned) [Compound 9] show?
Result block: ≤ 0.015 µM

Sourced from patent US12172983B2
